Where these numbers come from: the supplement of paper PMC10567573

For each record, write down the corresponding protein stability index.
B1: DCAF4 (parent)
chain: TTKCVRQYEGHVNEYAYLPLHVHE

variants of: B1; assay: protein stability index of a GFP-peptide fusion (GPS, HEK-293T) (PSI 1-6); higher = more stable; settings: c terminus: a fixed tail appended;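 also: lentivirally expressed fusions sorted by FACS into six bins by GFP to DsRed ratio, PSI derived from sequencing read proportions per bin multiplied by bin number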
Answers are plain numbers.

Below: 2 variants and their reported protein stability index.
[[record]]
sequence = "TPKCVRQYEGHVNEYAYLPLHVHE [T2P]"
reported_metric = "protein stability index"
number = 3.05

[[record]]
sequence = "TTECVRQYEGHVNEYAYLPLHVHE [K3E]"
reported_metric = "protein stability index"
number = 3.58


Each of the following entries comes with a recorded value; kindly state protein stability index for each.
1. TTKCVRQYEGHVNETAYLPLHVHE [Y15T]
2. TTKCVRQYEGYVNEYAYLPLHVHE [H11Y]
3. TTKCVRQYEGHVNEYAYLPLHVAE [H23A]
4. TTKCVRQYEGHVNEEAYLPLHVHE [Y15E]
5. TTKCVRQYEGHPNEYAYLPLHVHE [V12P]
6. TTKCVRQYEGHVNENAYLPLHVHE [Y15N]

1: 2.59; 2: 2.84; 3: 2.78; 4: 3.6; 5: 2.69; 6: 2.88

Working through the 6 variants below one at a time, give protein stability index for each.
1. TTKCVRQYEGDVNEYAYLPLHVHE [H11D]
2. TTKCVSQYEGHVNEYAYLPLHVHE [R6S]
3. TTKCVRQYEGHVNGYAYLPLHVHE [E14G]
4. TTKCVRQYEGHVLEYAYLPLHVHE [N13L]
5. TTKCVRQYEQHVNEYAYLPLHVHE [G10Q]
6. TTKCVRQYEGHVNEYAYLPDHVHE [L20D]

1. 2.88
2. 2.01
3. 2.29
4. 2.85
5. 2.24
6. 3.64

Below are 3 variants. Give each one its protein stability index.
1. TTKCVRQYEGHVNEYAYLPPHVHE [L20P]
2. DTKCVRQYEGHVNEYAYLPLHVHE [T1D]
3. TTKCVRQCEGHVNEYAYLPLHVHE [Y8C]

[3.31, 3.45, 2.66]

// each variant listed below needs its protein stability index
1. TTKCVRQYDGHVNEYAYLPLHVHE [E9D]
2. TTKCVRQYEGHVNEYAMLPLHVHE [Y17M]
3. TTYCVRQYEGHVNEYAYLPLHVHE [K3Y]
4. TTKCVRQYEGHLNEYAYLPLHVHE [V12L]

3.04
3.06
1.6
2.76

Provide the reported protein stability index of each entry below, same order.
1. TTKCVRQYEEHVNEYAYLPLHVHE [G10E]
2. TTRCVRQYEGHVNEYAYLPLHVHE [K3R]
3. TTKCVRQYEGHMNEYAYLPLHVHE [V12M]
4. TTKCVRQYEGHVNEYAYEPLHVHE [L18E]
5. TTKCVRQVEGHVNEYAYLPLHVHE [Y8V]

1: 3.3; 2: 2.12; 3: 2.86; 4: 3.58; 5: 3.17

For every record below, what is its protein stability index?
1. TTKCVRQYEGHVNEYAYLPLHHHE [V22H]
2. TTKCVRQYEGHVNEYATLPLHVHE [Y17T]
3. TTKCVRQYEGVVNEYAYLPLHVHE [H11V]
4. TTKCVRQYEGHVNTYAYLPLHVHE [E14T]
5. TTKCVRQYEGHVNEYAYSPLHVHE [L18S]
6. TSKCVRQYEGHVNEYAYLPLHVHE [T2S]
7. TTKQVRQYEGHVNEYAYLPLHVHE [C4Q]
8. TTKCVRQYEGHVNEGAYLPLHVHE [Y15G]

1: 2.96; 2: 3.65; 3: 3.56; 4: 2.23; 5: 2.98; 6: 2.74; 7: 2.94; 8: 3.84

Need protein stability index for each of these variants.
1. TTKCVRQYEGHVMEYAYLPLHVHE [N13M]
2. TTKCVRRYEGHVNEYAYLPLHVHE [Q7R]
3. TTKCVRQYEGPVNEYAYLPLHVHE [H11P]
4. TTKCYRQYEGHVNEYAYLPLHVHE [V5Y]
5. TTKCVRQYEPHVNEYAYLPLHVHE [G10P]

1. 1.88
2. 2.28
3. 3.25
4. 1.82
5. 2.18

Can you give me protein stability index for all of these, one by one?
1. TTKCNRQYEGHVNEYAYLPLHVHE [V5N]
2. TYKCVRQYEGHVNEYAYLPLHVHE [T2Y]
3. TTKCVRQYEGHVNEYAYLPLHVHR [E24R]
4. TTKCVRQYEGHVNEYAYLPYHVHE [L20Y]
5. TTKCVRQYEGHVNEYWYLPLHVHE [A16W]
6. TTKCVRQYYGHVNEYAYLPLHVHE [E9Y]
7. TTKYVRQYEGHVNEYAYLPLHVHE [C4Y]

2.27
2.01
2.18
2.32
1.84
1.97
2.48
